Source of measurements: PubChem BioAssay (NCI)

System: NCI-H460 lung
experimental.protocol: NCI-60 one-dose screen, 48 h (100 = growth as untreated, 0 = no growth, -100 = all killed)
experimental.setup: 10 µM unless noted
About 83,000 compounds went through this panel and 20% of them were active in at least one assay; those are over-represented in the sample as a whole.
Entries get a class label from measured growth. See ranges: class 0: < 20%; class 1: ≥ 20% and < 90%; class 2: ≥ 90%

compound	answer.label
COC(=O)CNC(=O)c1ccc(NC(=O)c2[nH]c(C)c(Cl)c2Cl)c(O[C@H]2CCNC2)c1	class 2
COC(=O)CCc1c(/C=C2\N=C(c3ccc[nH]3)C=C2OC)[nH]c(C)c1C(=O)OCc1ccccc1	class 0
O=C(OCC(O)(CO)C(=O)NC12CC3CC(CC(C3)C1)C2)c1ccc(Cl)cc1 (stereo not given)	class 2
COC(=O)c1cc(-c2cc(OC)c(OC)c(OC)c2)[nH]c1N/N=C/c1c(Cl)cccc1Cl	class 0
CC(CN)[C@@H]1CC[C@]2(CO)CC[C@]3(C)[C@H](CC[C@@H]4[C@@]5(C)CCC(NCCO)C(C)(C)[C@@H]5CC[C@]43C)[C@@H]12 (stereo not given in full)	class 0
C=C(C)[C@@H]1CCC[C@]2(C(=O)OC)CC[C@]3(C)[C@@H](CC[C@@H]4[C@@]5(C)CCCNC(C)(C)[C@@H]5CC[C@]43C)[C@@H]12	class 2
COc1ccc(NC(=O)CSc2oc(-c3ccccc3)nc2S(=O)(=O)c2ccc(Cl)cc2)c(OC)c1	class 1
COc1ccc(Cn2cc(C(=O)N=Nc3c(O)[nH]c4ccc(Br)cc34)nn2)cc1	class 2
COc1cc2c(c(OC)c1OC)C(=O)CC(c1cccc(C(=O)Nc3ccc(Br)cc3)c1)O2 (stereo not given)	class 1
C=C(CNCCO)[C@@H]1CC[C@]2(CO)CC[C@]3(C)[C@H](CC[C@@H]4[C@@]5(C)CCC(NCCO)C(C)(C)[C@@H]5CC[C@]43C)[C@@H]12 (stereo not given in full)	class 1
CCNCCNc1c(C)c(-c2ccc(C(F)(F)F)cc2)c(C#N)c2nc3ccccc3n12	class 2
CO[C@H]1CC(c2ccc[nH]2)=N[C@]12O[C@@H](C)C[C@@H]1CCCCCCCc3ccc([nH]3)[C@H]12	class 0
Cc1nn(-c2ccccc2)c(Oc2ccccc2)c1/C=N/NC(=O)Cn1c(=O)sc2ccccc21	class 1
CN1CC(c2ccccc2)C(C(=O)c2ccc(Br)cc2)C12C(=O)Nc1ccccc12 (stereo not given)	class 2
COc1cccc(C2C(C#N)=C(N)Oc3c2ccc2ccccc32)c1 (stereo not given)	class 0
COc1ccc(C2=NN(C=O)C(c3ccc(Oc4nc5c(c(=O)n(C)c(=O)n5C)n4C)c(OC)c3)C2)cc1 (stereo not given)	class 2
CC/C(=C(/c1ccc(Cl)cc1)c1ccc(OCCN(CC)CC)cc1)c1ccc(OC)cc1	class 0
C=C(CNCCc1ccc(O)cc1)[C@@H]1CC[C@]2(CO)CC[C@]3(C)[C@H](CC[C@@H]4[C@@]5(C)CCC(N)C(C)(C)[C@@H]5CC[C@]43C)[C@@H]12 (stereo not given in full)	class 0
N#C/C(=C/C=C/c1ccccc1)S(=O)c1ccccc1 (stereo not given)	class 0
COc1cc(-c2ccc(-c3ccc(C(=N)N)s3)s2)cc(OC)c1OC	class 0
Cc1ccccc1NC(=O)c1sc2nc3c(cc2c1N)CCCC3	class 0
COC(=O)[C@@H](Cc1c[nH]c2ccccc12)NC[C@@H](O)CN1C(=O)/C(=C\c2cc(OC)c(OC)c(OC)c2)c2ccccc21	class 1
Clc1nc(N2CCC[N+]3(CC2)CC[N+]2(CCCNCC2)CC3)nc(N2CCC[N+]3(CC2)CC[N+]2(CCCNCC2)CC3)n1 (stereo not given)	class 1
COC(=O)c1ccc(-n2cc(CCCOS(=O)(=O)c3ccc(F)cc3)nn2)cc1	class 2
COC(=O)c1nc(-c2ccc(C)cc2)oc1N1CCOCC1	class 2
CSc1nc(N)c2c(n1)NC(c1ccccc1)C1CCc3ccccc3C1=N2 (stereo not given)	class 1
CCOC(=O)c1cnc2sc(-c3ccc(OC)cc3)nc2c1Cl	class 2
O=C(Nc1ncc(Cc2ccc(Cl)cc2)s1)C1=NCCCCN1	class 2
CC1(C)CCC[C@]23C(=O)O[C@](O)(C(=O)C4=C[C@@](C)(/C=C/CCCc5ccc6ccc7cccc8ccc5c6c78)CC[C@@]42O)[C@@H]13	class 0
COc1cccc2cc(N(C)c3ncnc4ccccc34)ccc12	class 0
CC(C)(C)c1ccc(C(=O)Nc2sc3c(c2C#N)CCC(=O)C3)cc1	class 0
c1ccc2[nH]c(-c3ccc(-c4nccc5c4[nH]c4ccccc45)cc3)nc2c1	class 1
CC1=NN(c2cccc(Cl)c2)C(=O)/C1=C\C=C\c1ccccc1	class 2
COc1ccc(-c2cc(-c3ccc(Nc4nc(Nc5ccc(Cl)cc5)nc(Nc5ccc(Cl)cc5)n4)cc3)no2)cc1	class 1
